- System tested: Signal transducer and activator of transcription 3 (Homo sapiens)
- Measurement protocol: reduction of STAT3-responsive reporter signal – cell-based, luminescence, dose response, counter-screen for STAT1 inhibitor project, late-stage follow-up (AID 2771)
- Protocol conditions: STAT3-responsive luciferase reporter cells
Activity calls are given as the source filed them. How the calls were made is not given here.
Property name: IC50

Worked examples follow.
compound=CN1CCN(C=C2Nc3ccccc3C(=O)N2Cc2nc(C34CC5CC(CC(C5)C3)C4)cs2)CC1 value_reported="> 55.7 µM (inactive)"
compound=COc1cc2c(cc1OC)C(=O)N(Cc1coc(-c3ccccc3)n1)C(=CN1CCOCC1)N2 value_reported="> 55.7 µM (inactive)"
compound=O=C(c1ccc(-n2c(=S)[nH]c3ccccc3c2=O)cc1)N1CCN(c2ccccc2)CC1 value_reported="> 55.7 µM (inactive)"
compound="COc1cccc(NC(=O)C(c2ccccc2)N2CCN(S(=O)(=O)c3ccc(C)cc3)CC2)c1 (centres undefined)" value_reported="> 55.7 µM (inactive)"
compound=COc1cc2c(cc1OC)C(=O)N(Cc1cc(-c3ccccc3OC)no1)C(=CN1CCOCC1)N2 value_reported=inactive
compound="CCC(C)c1ccc(-c2csc(CN3C(=O)c4ccccc4N/C3=C\\N3CCN(C)CC3)n2)cc1 (centres undefined)" value_reported="> 55.7 µM (inactive)"
compound=CCOc1ccc2oc(=O)cc(CSc3nc4ccccc4c(=O)[nH]3)c2c1 value_reported="> 55.7 µM (inactive)"
compound=O=C(c1ccc(-n2c(=S)[nH]c3ccccc3c2=O)cc1)N1CCN(C2CCCCC2)CC1 value_reported="> 55.7 µM (inactive)"
compound=O=C(O)c1nn(-c2ccc(F)cc2)c(=O)c2ccccc12 value_reported="> 55.7 µM (inactive)"
compound="CCOC(=O)c1ccc(S(=O)(=O)N2CCN(C(C(=O)Nc3ccc(OC)c(Cl)c3)c3ccccc3)CC2)cc1 (centres undefined)" value_reported="> 55.7 µM (inactive)"

[in] Item CCOc1ccccc1NC(=O)C(c1ccccc1)N1CCN(S(=O)(=O)c2ccc(F)c(F)c2F)CC1 (centres undefined) has what recorded IC50?
[out] > 55.7 µM (inactive)

[in] Item O=C(Nc1ccc(F)cc1)C(c1ccccc1)N1CCN(S(=O)(=O)c2ccc3c(c2)OCCO3)CC1 (centres undefined) has what recorded IC50?
[out] > 55.7 µM (inactive)

[in] Item NC(=O)c1ccc(S(=O)(=O)N2CCN(C(C(=O)Nc3ccc(F)cc3)c3ccccc3)CC2)cc1 (centres undefined) has what recorded IC50?
[out] > 55.7 µM (inactive)

[in] Item N#Cc1ccccc1S(=O)(=O)N1CCN(C(C(=O)Nc2ccc(F)cc2)c2ccccc2)CC1 (centres undefined) has what recorded IC50?
[out] > 55.7 µM (inactive)

[in] Item `Cc1ccc(-n2nc(C(=O)O)c3ccccc3c2=O)cc1Cl` has what recorded IC50?
[out] > 55.7 µM (inactive)
